- System: SK-MEL-28 melanoma
- measurement_notes: NCI-60 one-dose screen, 48 h (100 = growth as untreated, 0 = no growth, -100 = all killed)
- experimental_setup: 10 µM unless noted
This is part of a sample that, as a whole, favours compounds with a hit. Of some 83,000 tested, about 20% had one in any assay.
Label yes (1) when growth is at or above 80%; anything below gets no (0).

> print(dat)
                                   compound  class.name
1  O=C1Nc2c(ccc(Cl)c2Cl)/C1=C/c1cc(Br)c(O)c(Br)c1      no (0)
2             Oc1ccccc1/C=N/Nc1ccc2ccccc2n1      no (0)
3  CCOC(=O)C(C#N)C1CCCCC1 (stereo unspecified)     yes (1)
4            CCOC(=O)C(=Cc1ccccc1F)C(=O)OCC     yes (1)
5   CCN(CC)CCCNc1cc(OC)cc2nc3cc(Cl)ccc3nc12      no (0)

---

- System: MDA-MB-231 breast
- measurement_notes: NCI-60 one-dose screen, 48 h
- experimental_setup: 10 µM unless noted
This is part of a sample that, as a whole, favours compounds with a hit. Of some 83,000 tested, about 20% had one in any assay. Activity calls are given as the source filed them. Rule for the calls: active = growth percent below 10; inactive = the rest.
Classes used: true (1) = active, false (0) = inactive

> print(dat)
                                    compound  class.name
 1  C/C(=C(/c1ccc(O)cc1)c1ccc(OCCN(C)C)cc1)c1ccccc1   false (0)
 2  C=CC[N+]1(CCO)CCN=C1CCCCCCCCCCCCC (centres undefined)    true (1)
 3             CCOC(=O)CC(=O)c1c(C)cc(C)cc1C   false (0)
 4  O=C(CN1CCOCC1)Nc1ccc(Cn2nnc3c2C(=O)c2nnn(Cc4ccc(NC(=O)CN5CCOCC5)cc4)c2C3=O)cc1    true (1)
 5                    COc1ccc(CNc2nccnn2)cc1   false (0)
 6  O=C1C=CC(=O)N1c1ccc(Cc2ccc(N3C(=O)C=CC3=O)cc2)cc1   false (0)
 7   CCc1ccc(C(c2ccc(CC)cc2)C(Cl)(Cl)CCl)cc1   false (0)
 8  O=[N+]([O-])c1cccc(-c2nc3sccn3c2-c2ccnc(NCCCNS(=O)(=O)c3ccc(Br)cc3)n2)c1   false (0)
 9  COc1ccc(-c2cc(-c3ccc(N(C)C)cc3)nc(NC(=O)c3ccncc3)n2)cc1   false (0)
10  Cc1[nH]n(-c2ccccc2)c2nc3nncc3c(-c3ccc(Cl)cc3)c12   false (0)
11  COc1cnc2c(c1)C(=O)c1c-2n(CCCN2CCCC2)c(=O)c2cc([N+](=O)[O-])ccc12    true (1)
12     Oc1cccc(Nc2nccc(-c3ccc4ccccc4c3)n2)c1   false (0)
13  O=c1c2cccc3c(Nc4c(F)cccc4F)ccc(c32)c2nc3ccccc3n12   false (0)
14  O=C(CO[N+](=O)[O-])Nc1ccc(C(=O)/C=C/c2ccc3c(c2)OCO3)cc1   false (0)
15  CCN(CC)CC(O)c1cc(-c2ccc(Cl)cc2)nc2c(C)c(Cl)ccc12 (centres undefined)    true (1)
16  O=C(Nc1ccc(Nc2cc(Nc3ccccc3)ncn2)cc1)Nc1cc(C(F)(F)F)ccc1F   false (0)
17  COc1ccc(-c2c3c(nc4n[nH]c(-c5ccc(Cl)cc5)c24)-c2ccccc2C(=O)C3=O)cc1    true (1)
18  COc1cc(OC)c(/C=C/C(=O)c2c(OC)cc(OC)cc2OC)c(OC)c1   false (0)
19  CN1CCN(Cc2ccc(NC(=O)c3[nH]ncc3Nc3ncnc4sccc34)cc2)CC1    true (1)
20  Nc1nc2c(c3ncccc13)C(c1ccc(Cl)c(Cl)c1)Cc1ncccc1-2 (centres undefined)   false (0)
21  ClC1=C2NC=NC2n2c(nnc2-c2ccc(Cl)cc2)N1 (centres undefined)   false (0)
22                   N=c1c2ccccc2nc2n1CCCCC2   false (0)
23  COc1ccc(/C=c2/c(=O)[nH]c3nc4sc(C)c(C)c4c(=O)n23)cc1   false (0)
24   CCCCNc1ccc2c3c1cccc3c(=O)n1c3ccccc3nc21   false (0)
25  O=C1CC(c2nc3ccccc3s2)CN1C1CCCCC1 (centres undefined)   false (0)
26                   Fc1ccc(Cc2ccc(F)cc2)cc1   false (0)
27             Oc1ccccc1/C=N/Nc1ccc2ccccc2n1   false (0)
28  O=C(Nc1ccc(Oc2ccc(F)cc2)c(Cl)c1)c1cccnc1   false (0)
29  Cc1ccc2c(c1)O/C(=C\c1cccc(OCC(=O)c3ccccc3)c1)C2=O   false (0)
30  COc1cc2cc(COc3nccc(-c4ccc(Cl)cc4)n3)c(=O)[nH]c2cc1OC   false (0)
31  Cc1ccc(C2CC3c4ccccc4C2C2CCCCN32)cc1 (centres undefined)   false (0)
32  C=C1CC2(OC1=O)C(=O)N(CCCCCCCCCCCCN1C(=O)C3(CC(=C)C(=O)O3)c3ccccc31)c1ccccc12 (centres undefined)   false (0)
33  Cn1cc(-c2ccc(-c3cn(C)c4ncccc34)[nH]2)c2cccnc21   false (0)
34  COc1ccc2nc3cc(Cl)ccc3c(N3CCN(c4nccc(Nc5ccccc5)n4)CC3)c2c1   false (0)
35           O=C(Nc1ccc(F)cc1)Nc1ccc(CCO)cc1   false (0)
36  CCC(c1ccccc1)C(CC)c1ccc(O)c(O)c1 (centres undefined)   false (0)
37  COc1cc(NCCCCCN=C(N)NC(N)=NC(C)C)c2ncccc2c1   false (0)
38                COC1=CC(=O)C(OC)=C(OC)C1=O   false (0)
39  CCCC(=O)Oc1ccc(/C(=C(/CC)Cc2ccccc2)c2ccc(OCCN3CCCC3)cc2)cc1   false (0)
40      CS(=O)CCCCCN=C=S (centres undefined)    true (1)
41    Cc1cc(Nc2nc(N3CCOCC3)nc3ccccc23)n[nH]1   false (0)
42  C[C@@H]1CC[C@@H]2[C@@H]1[C@H](OC(=O)/C=C/c1ccccc1)[C@]1(C3CCCCC3)C[C@@H](OC(=O)CO)[C@@]2(C)O1   false (0)
43                 CCCCCn1cnc2c(=S)nc[nH]c21   false (0)
44  COc1ccc(-c2cc(=O)[nH]c3c(OC)c4ccccc4c(OC)c23)cc1   false (0)

---

- Tested on: NCI-H322M lung
- measurement_notes: NCI-60 one-dose screen, 48 h (100 = growth as untreated, 0 = no growth, -100 = all killed)
- experimental_setup: 10 µM unless noted
- Protocol: Growth inhibition of the NCI-H322M human Non-Small Cell Lung tumor cell line is measured as a screen for anti-cancer activity. Cells are grown in 96 well plates and exposed to the test compound for 48 hours. Compounds are tested at a single concentration, which is 10^-5 M for most compounds. The reported endpoint is percent growth (GI% or GIPRCNT), where numbers from 0 - 100% represent growth inhibition, and numbers from -100% - 0 represent cell death. […]
The panel holds about 83,000 compounds, 20% with a hit somewhere; the sample as a whole holds those more often.
reported_metric: growth (%)

> print(dat)
                  compound.structure.string  units.label  assay.result
1  C[C@@H]1CCC2=C(CCC[C@]2(C)C(=O)O)[C@@]1(C)CCc1ccoc1            %          93.4
2  CC[C@H](CO)Nc1nc(NCc2ccccc2)n2ncc(C(C)C)c2n1            %          14.8
3                CC(=O)CC(C)(C)c1ccc(Cl)cc1            %           107
4  O=C1c2cccnc2C(=O)c2c1c(C(=O)OCCN1CCOCC1)c1ccccn21            %         -55.4

---

- Test system: SN12C renal
- measurement_notes: NCI-60 one-dose screen, 48 h
- experimental_setup: 10 µM unless noted
About 83,000 compounds went through this panel and 20% of them were active in at least one assay; those are over-represented in the sample as a whole. Activity calls are given as the source filed them. Rule for the calls: active = growth percent below 10; inactive = the rest.
Labels: yes (1) = active, no (0) = inactive

> print(dat)
                                    molecule  class.name
 1  Cc1ccc2c(c1)C(=O)c1c-2c(OCCCN(C)C)nc2ccccc12      no (0)
 2  O=c1c2c3c(sc2n2c(CCl)nnc2n1Cc1ccccc1)CCCC3     yes (1)
 3  COc1ccc(/C=c2/c(=O)[nH]c3nc4sc(C)c(C)c4c(=O)n23)cc1      no (0)
 4                 CC#Cc1nc2ccccc2c(=O)[nH]1      no (0)
 5     Oc1ccc(Nc2nccc(-c3ccc4ccccc4c3)n2)cc1      no (0)
 6  O=C(/C=C/c1ccc(Cl)cc1)/C=C/c1cc2ccccc2[nH]c1=O      no (0)
 7  COc1ccc(C2CC(=O)Nc3c2c(C)nn3-c2nc3ccccc3[nH]2)cc1 (configuration not stated)      no (0)
 8  COc1ccc2nc3cc(Cl)ccc3c(N3CCN(c4ccnc(N5CCN(C)CC5)n4)CC3)c2c1      no (0)
 9  C=C1CCC2C3(C)COC(c4ccc(SC)cc4)OC3CCC2(C)C1C/C=C1/C(=O)OCC1O (configuration not stated)      no (0)
10  C/C(=C(/c1ccc(O)cc1)c1ccc(OCCN(C)C)cc1)c1ccccc1      no (0)
11    CC(=O)/C(=C/c1cccc(Cl)c1)C(=O)c1ccccc1      no (0)
12  CC(=O)C1=C(O)C=C2Oc3c(C(=O)/C=C/c4cc(Cl)cc(Cl)c4)c(O)c(C)c(O)c3[C@]2(C)C1=O     yes (1)
13  Cc1cc(N/N=C/c2nc(-c3ccc(Cl)cc3)oc2C)c2cc(Cl)ccc2n1     yes (1)
14     Cc1ccc2c(NCCCN(C)C)c3c(C)nn(C)c3nc2c1      no (0)
15  COc1ccc(C2Nc3ccccc3-n3cccc32)cc1 (configuration not stated)      no (0)
16   Cc1cc(Nc2nc(-c3cccnc3)nc3ccccc23)n[nH]1      no (0)
17  CC(=O)C1=C(O)C=C2Oc3c(C(=O)/C=C/c4ccccc4)c(O)c(C)c(O)c3[C@]2(C)C1=O      no (0)
18                   COc1cc(/C=N/N(C)C)ccc1O      no (0)
19          COc1ccc(/C=N\NC(=O)c2ccncc2)cc1O      no (0)
20  COc1ccc(-c2nc(Nc3cc(C)[nH]n3)c3ccccc3n2)cc1      no (0)
21  CS(CCCCN=C=S)=NC(=O)c1c(F)c(F)c(F)c(F)c1F (configuration not stated)      no (0)
22  Cc1ccc2cnc(N)c(C#Cc3cncc(C(=O)Nc4ccc(CN5CCN(C)CC5)c(C(F)(F)F)c4)c3)c2c1     yes (1)
